- system: Glycogen synthase kinase-3 alpha (Homo sapiens) (UniProt P49840)
- Sequence (P49840 whole entry, looked up): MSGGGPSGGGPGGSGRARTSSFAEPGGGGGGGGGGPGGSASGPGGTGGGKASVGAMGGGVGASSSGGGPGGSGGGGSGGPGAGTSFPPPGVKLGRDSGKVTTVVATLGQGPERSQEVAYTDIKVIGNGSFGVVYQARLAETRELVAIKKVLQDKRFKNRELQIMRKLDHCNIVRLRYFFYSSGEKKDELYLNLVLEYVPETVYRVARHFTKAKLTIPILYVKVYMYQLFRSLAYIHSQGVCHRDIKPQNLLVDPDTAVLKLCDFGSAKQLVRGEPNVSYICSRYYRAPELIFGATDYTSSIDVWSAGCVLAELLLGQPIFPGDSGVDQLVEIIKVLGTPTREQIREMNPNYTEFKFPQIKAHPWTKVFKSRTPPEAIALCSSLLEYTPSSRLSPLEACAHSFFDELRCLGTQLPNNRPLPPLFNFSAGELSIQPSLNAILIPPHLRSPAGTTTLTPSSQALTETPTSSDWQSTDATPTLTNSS
- test: concentration-response blocking of human GSK3A – biochemical, luminescence, cell-free homogeneous, retest, dose response (AID 463203)
- run conditions: GSK-3 alpha enzyme, ADP-Glo luminescence, 60 min
Calls of active or inactive are those of the source.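 Rule for the calls: active = more than half of replicate measurements showing over 20% loss of kinase signal relative to plate controls; inconclusive = some but at most half of replicates over 20% loss; inactive = no replicate over 20% signal loss.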
AC50 values, listed per item

{"compound": "O=C(Nc1ccccc1F)Nc1ccccc1OC(F)F", "AC50": "> 30 µM (inactive)"}
{"compound": "COC(=O)C1=C(C)Nc2ncnn2C1c1ccco1 (stereo not given)", "AC50": "> 30 µM (inactive)"}
{"compound": "COC(=O)c1c(NC(=O)CN2C(=O)NC3(CCC(C)CC3)C2=O)sc2c1CCC2 (stereo not given)", "AC50": "> 30 µM (inactive)"}

IN: Reported AC50, compound `O=C(NCCCn1ccnc1)C(Cl)(Cl)Cl` : ____
OUT: > 30 µM (inactive)

IN: How about this compound: `O=C(CSc1nnc(-c2ccc(O)cc2)o1)Nc1ccc2c(c1)OCCO2`
OUT: 0.463 µM

----------
- system: Glycogen synthase kinase-3 alpha (Homo sapiens) (UniProt P49840)
- test: concentration-response blocking of human GSK3A – biochemical, luminescence, cell-free homogeneous, retest, dose response (AID 463203)
- run conditions: GSK-3 alpha enzyme, ADP-Glo luminescence, 60 min
Active and inactive are the calls of the source.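 The calls were made as follows: active = more than half of replicate measurements showing over 20% loss of kinase signal relative to plate controls; inconclusive = some but at most half of replicates over 20% loss; inactive = no replicate over 20% signal loss.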
Lab note: assign the record to one of label 1 = active, label 0 = inactive

Worked examples follow.
{"compound": "Cc1cccc(C)c1OCC(=O)N=Nc1c(O)[nH]c2ccc(Br)cc12", "label value": "label 0"}
{"compound": "COc1ccc(OC)c(C(=O)c2c(C)oc3cc(Br)c(O)c(CN(C)C)c23)c1", "label value": "label 0"}

IN: GET /call?item= `Cc1ccc(C(=O)O/N=C(\N)c2cccc([N+](=O)[O-])c2)cc1` returns the recorded outcome of this test.
OUT: label 0

IN: How about this compound: `CC(C)NC(=O)NC(=O)CSc1nncn1C`
OUT: label 0

IN: How about this compound: `O=[N+]([O-])c1cccnc1NCCc1ccccc1`
OUT: label 0

IN: How about this compound: `COc1ccccc1NC(=O)c1cc2ccc(O)cc2o/c1=N\O`
OUT: label 0

----------
- system: UniProtKB P49840
- test: concentration-response blocking of human GSK3A – biochemical, luminescence, cell-free homogeneous, retest, dose response (AID 463203)
- run conditions: GSK-3 alpha enzyme, ADP-Glo luminescence, 60 min
Active and inactive are the calls of the source.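 The calls were made as follows: active = more than half of replicate measurements showing over 20% loss of kinase signal relative to plate controls; inconclusive = some but at most half of replicates over 20% loss; inactive = no replicate over 20% signal loss.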
Lab note: assign the record to one of label 1 for active, label 0 for inactive

IN: GET /call?item= `Cc1nn(-c2ccccc2)c(C)c1/C=C/C(=O)OCC(=O)Nc1ccc(C(N)=O)cc1` returns the recorded outcome of this test.
OUT: label 0

IN: How about this compound: `CN1CCN(c2ccccc2NC(=O)c2ccc(-c3ccccc3[N+](=O)[O-])o2)CC1`
OUT: label 1

IN: How about this compound: `CCCOc1ccc(-c2c(C(=O)N/N=C(\C)c3ccncc3)nnn2-c2nonc2N)cc1`
OUT: label 0

IN: How about this compound: `CN(Cc1c(C(=O)N/N=C/c2cccc(O)c2)nnn1-c1nonc1N)c1ccccc1`
OUT: label 1

IN: How about this compound: `CCCOc1cccc(-c2nnc(N)s2)c1`
OUT: label 0

IN: How about this compound: `Fc1cccc(/C=N/Nc2ccccn2)c1`
OUT: label 0

IN: How about this compound: `Cc1ccc2nc3c(cc2c1)c(NS(=O)(=O)c1ccccc1)nn3CC(C)C`
OUT: label 0

IN: How about this compound: Cc1cnc(NC(=O)C2COc3ccccc3O2)s1 (stereo not given)
OUT: label 1

IN: How about this compound: `COc1ccc(NC(=O)Nc2cc(F)ccc2C)cc1`
OUT: label 0

IN: How about this compound: `COc1cccc(-n2c(SCC(=O)NC3CCCC3)nnc2-c2ccco2)c1`
OUT: label 0

IN: How about this compound: COC(=O)C1(C#N)C(c2ccccc2)C1(C(=O)OC)C(=O)OC (stereo not given)
OUT: label 0

IN: How about this compound: `COc1ccc2nc(NC(=O)CCc3cc(OC)c(OC)c(OC)c3)sc2c1`
OUT: label 1

IN: How about this compound: COc1cc2c(cc1OC)C(C)N(C(=O)Cn1ncc3c1-c1cc(C)ccc1OC3)CC2 (stereo not given)
OUT: label 0

IN: How about this compound: `COc1ccc(CC(=S)N2CCOCC2)cc1`
OUT: label 0

IN: How about this compound: `CN(C)c1cccc(C(=O)N/N=C/c2ccccc2F)c1`
OUT: label 0
